- testTarget: Bifunctional purine biosynthesis protein ATIC (Homo sapiens)
- Sequence (P31939 whole entry, looked up): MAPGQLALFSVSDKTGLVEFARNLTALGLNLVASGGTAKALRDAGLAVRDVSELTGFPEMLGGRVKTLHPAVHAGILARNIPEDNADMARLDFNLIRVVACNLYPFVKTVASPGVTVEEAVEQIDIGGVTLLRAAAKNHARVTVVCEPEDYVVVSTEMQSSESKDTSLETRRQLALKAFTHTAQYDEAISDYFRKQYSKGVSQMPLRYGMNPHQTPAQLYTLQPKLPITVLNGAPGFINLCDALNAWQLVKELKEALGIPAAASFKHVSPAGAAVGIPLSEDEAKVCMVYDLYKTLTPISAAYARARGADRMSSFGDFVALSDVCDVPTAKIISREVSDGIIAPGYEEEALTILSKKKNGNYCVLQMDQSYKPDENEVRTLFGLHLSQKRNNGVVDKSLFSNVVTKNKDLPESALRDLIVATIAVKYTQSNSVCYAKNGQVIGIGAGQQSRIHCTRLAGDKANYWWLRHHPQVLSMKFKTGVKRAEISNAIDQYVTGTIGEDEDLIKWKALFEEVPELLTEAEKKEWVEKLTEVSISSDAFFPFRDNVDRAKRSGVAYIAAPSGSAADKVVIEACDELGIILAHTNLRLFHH
- experimentSummary: In vitro inhibitory activity against Aminoimidazole carboxamide ribonucleotide transformylase pre-incubed for 12 hr at 250 uM
// label = true (1) if inhibition is not less than 70%, otherwise false (0)

Solved entries:
{"columns": ["sampleSmiles", "labelClass"],
 "data": [
  ["Nc1nc(N)c(CCCNc2cc(F)c(F)cc2[N+](=O)[O-])c(O)n1", "true (1)"],
  ["COC(=O)c1ccc(CN(CCCc2c(N)nc(N)nc2O)c2cc(F)c([N+](=O)[O-])cc2[N+](=O)[O-])cc1", "true (1)"],
  ["COC(=O)c1ccc(CN(CCc2c(N)nc(N)nc2O)c2cc(F)ccc2[N+](=O)[O-])cc1", "true (1)"]
]}

Query: Is inhibition at least 70%? Consider COC(=O)c1ccc(CN(CCc2c(N)nc(N)nc2O)c2ccc([N+](=O)[O-])c(F)c2F)cc1
Result: true (1)

Query: Form field: inhibition at least 70%? Entry: Nc1nc(N)c(CCCNc2cc(F)c([N+](=O)[O-])cc2[N+](=O)[O-])c(O)n1
Result: false (0)

###

- testTarget: Trifunctional purine biosynthetic protein adenosine-3 (Homo sapiens)
- experimentSummary: In vitro inhibitory activity against Glycinamide ribonucleotide transformylase (GAR Tfase+GAR) pre-incubation of 6 hr at 250 uM concentration
Kindly return 1 if reported inhibition is no lower than 20%; return 0 if it is lower.

{"columns": ["sampleSmiles", "labelClass"],
 "data": [
  ["COC(=O)c1ccc(CN(CCc2c(N)nc(N)nc2O)c2ccc([N+](=O)[O-])c(F)c2F)cc1", 1],
  ["COC(=O)c1ccc(CN(CCc2c(N)nc(N)nc2O)c2cc(F)c(F)cc2[N+](=O)[O-])cc1", 1],
  ["COC(=O)c1ccc(CN(CCc2c(N)nc(N)nc2O)c2cc(F)ccc2[N+](=O)[O-])cc1", 1]
]}

Query: I'd appreciate it if you could say whether COC(=O)c1ccc(CN(CCCc2c(N)nc(N)nc2O)c2cc(F)c([N+](=O)[O-])cc2[N+](=O)[O-])cc1 has inhibition at least equal to 20%.
Result: 0

Query: # bool: inhibition of COC(=O)c1ccc(CN(CCCc2c(N)nc(N)nc2O)c2cc(F)cc(F)c2[N+](=O)[O-])cc1 >= 20%
Result: 0

Query: Could you verify whether the entry Nc1nc(N)c(CCCNc2cc(F)c([N+](=O)[O-])cc2[N+](=O)[O-])c(O)n1 shows inhibition of no less than 20%?
Result: 0

Query: Would you say COC(=O)c1ccc(CN(CCCc2c(N)nc(N)nc2O)c2ccc([N+](=O)[O-])c(F)c2F)cc1 shows inhibition at minimum 20%?
Result: 1

Query: Is inhibition for COC(=O)c1ccc(CN(CCCc2c(N)nc(N)nc2O)c2cc(F)c(F)cc2[N+](=O)[O-])cc1 at or above 20%?
Result: 0

###

- Test system: CCRF-CEM
- experimentSummary: Cytotoxicity in the presence of thymidine and hypoxanthine against CCRF-CEM cell line
- Assay type: functional, cell-based
- conditionDetails: Homo sapiens
endpointLabel: IC50 (µM)
Numbers only, in µM.

# annotated cases, reported IC50 shown
{"columns": ["sampleSmiles", "IC50 (µM)"],
 "data": [
  ["Nc1nc(N)c(CCCNc2cc(F)c(F)cc2[N+](=O)[O-])c(O)n1", 97],
  ["COC(=O)c1ccc(CN(CCc2c(N)nc(N)nc2O)c2cc(F)c([N+](=O)[O-])cc2[N+](=O)[O-])cc1", 1.1],
  ["COC(=O)c1ccc(CN(CCCc2c(N)nc(N)nc2O)c2cc(F)c(F)cc2[N+](=O)[O-])cc1", 53]
]}

Take each entry in turn and give its IC50.
1. Nc1nc(N)c(CCCNc2cc(F)cc(F)c2[N+](=O)[O-])c(O)n1
2. COC(=O)c1ccc(CN(CCCc2c(N)nc(N)nc2O)c2cc(F)c([N+](=O)[O-])cc2[N+](=O)[O-])cc1
3. Nc1nc(N)c(CCCNc2cc(F)c([N+](=O)[O-])cc2[N+](=O)[O-])c(O)n1

Result:
94
3.5
1.2

Please state IC50 for every compound in the list that follows.
1. Nc1nc(N)c(CCCNc2ccc([N+](=O)[O-])c(F)c2F)c(O)n1
2. COC(=O)c1ccc(CN(CCc2c(N)nc(N)nc2O)c2cc(F)ccc2[N+](=O)[O-])cc1
3. COC(=O)c1ccc(CN(CCCc2c(N)nc(N)nc2O)c2cc(F)ccc2[N+](=O)[O-])cc1
4. Nc1nc(N)c(CCNc2cc(F)c(F)cc2[N+](=O)[O-])c(O)n1
5. COC(=O)c1ccc(CN(CCc2c(N)nc(N)nc2O)c2ccc([N+](=O)[O-])c(F)c2F)cc1
6. COC(=O)c1ccc(CN(CCc2c(N)nc(N)nc2O)c2cc(F)c(F)cc2[N+](=O)[O-])cc1
7. COC(=O)c1ccc(CN(CCCc2c(N)nc(N)nc2O)c2ccc([N+](=O)[O-])c(F)c2F)cc1

Result:
1: 73; 2: 72; 3: 30; 4: 58; 5: 67; 6: 11; 7: 45

Data credit: ChEMBL document CHEMBL1133492
